# pIC50 listing for each entry below
Biological target: MAP kinase p38 (Homo sapiens, UniProt O15264+Q15759+Q16539+P53778)
Assay: Binding affinity against p38 MAP kinase system
Type: protein assay
Response field accepts a number only; no unit should be typed.

Some solved entries appear below for comparison.
1. Cc1ccc(Sc2ccc3c(-c4c(Cl)cccc4Cl)c(=O)ncn3n2)c(C)c1 6.577
2. O=c1ncn2nc(Sc3ccc(Cl)c(Cl)c3)ccc2c1-c1c(Cl)cccc1Cl 6.097
3. O=c1ncn2nc(Sc3ccccc3Br)ccc2c1-c1c(Cl)cccc1Cl 6.602
4. O=c1ncn2nc(Sc3ccc(F)cc3Cl)ccc2c1-c1c(Cl)cccc1Cl 7.444
5. O=c1ncn2nc(Sc3cccc(Cl)c3)ccc2c1-c1c(Cl)cccc1Cl 6.553
6. O=c1ncn2nc(Sc3ccc(F)c(Cl)c3)ccc2c1-c1c(Cl)cccc1Cl 6.301

Input: Sample "Nc1cc(F)ccc1Sc1ccc2c(-c3c(Cl)cccc3Cl)c(=O)ncn2n1" — what was its pIC50?
Output: 6.658

Input: Can you share its pIC50? I mean this molecule: "Cc1ccccc1Sc1ccc2c(-c3c(Cl)cccc3Cl)c(=O)ncn2n1"
Output: 6.699

Input: I'd like to know its pIC50. The molecule in question is "Cc1cc(Cl)ccc1Sc1ccc2c(-c3c(Cl)cccc3Cl)c(=O)ncn2n1"
Output: 6.745

Input: pIC50 lookup needed for "Cc1ccc(Sc2ccc3c(-c4c(Cl)cccc4Cl)c(=O)ncn3n2)cc1" , thanks.
Output: 5.854

Input: Give the measured pIC50 of "O=c1ncn2nc(Sc3ccc(F)cc3)ccc2c1-c1c(Cl)cccc1Cl" .
Output: 7

Input: So what does the record say about pIC50 for "Cc1cccc(Sc2ccc3c(-c4c(Cl)cccc4Cl)c(=O)ncn3n2)c1" ?
Output: 5.854

Input: // lookup pIC50 for "O=c1ncn2nc(Sc3ccccc3O)ccc2c1-c1c(Cl)cccc1Cl"
Output: 6.444

Input: Name the recorded pIC50 for "Cc1ccc(Sc2ccc3c(-c4c(Cl)cccc4Cl)c(=O)ncn3n2)cc1C" .
Output: 5.721

Input: Can you share its pIC50? I mean this molecule: "O=c1ncn2nc(Sc3cccc(F)c3)ccc2c1-c1c(Cl)cccc1Cl"
Output: 6.347

Input: Fill in: pIC50 of "O=c1ncn2nc(Sc3ccccc3)ccc2c1-c1c(Cl)cccc1Cl" is ___
Output: 6.602
